Tested on: GM1 production in Jurkat cells
Test: cells
Assay type: cell-based
Conditions: Homo sapiens, Jurkat, 72 h
Labelling field: enter yes (1) if recorded IC50 is less than 10 nM. Enter no (0) if it equals or exceeds that cut-off.

IN: Consider O=C(NC1CCc2ccc(-c3cccc(Cl)c3)cc21)O[C@@H]1CN2CCC1CC2 (some centres unmarked) . Does its IC50 lie strictly below 10 nM?
OUT: no (0)

IN: Here's an entry: CC(C)(C)c1cccc(-c2cc3c(cc2F)C(NC(=O)O[C@@H]2CN4CCC2CC4)C(C)(C)C3)c1 (some centres unmarked) . Is its IC50 below 10 nM?
OUT: no (0)

IN: Dear colleague, could you confirm whether IC50 of CC1(C)Cc2cc(-c3ccc(C(F)(F)F)cc3)ccc2C1NC(=O)O[C@@H]1CN2CCC1CC2 (some centres unmarked) falls below 10 nM? Thanks.
OUT: yes (1)

IN: # strict comparison: is reported IC50 < 10 nM? input = O=C(NC1CCc2cc(-c3cccc(F)c3F)ccc21)O[C@@H]1CN2CCC1CC2 (some centres unmarked)
OUT: no (0)

IN: Consider COc1ccc(-c2ccc3c(c2)CC(C)(C)C3NC(=O)O[C@@H]2CN3CCC2CC3)cc1 (some centres unmarked) . Does its IC50 lie strictly below 10 nM?
OUT: no (0)

IN: Please check: IC50 for CC(C)(C)OCc1ccc(-c2ccc3c(c2)CC(C)(C)C3NC(=O)O[C@@H]2CN3CCC2CC3)cc1 (some centres unmarked) , strictly under 10 nM or not?
OUT: yes (1)

IN: Please check: IC50 for O=C(NC1COc2cc(-c3cccc(OC(F)(F)F)c3)ccc21)O[C@@H]1CN2CCC1CC2 (some centres unmarked) , strictly under 10 nM or not?
OUT: no (0)

IN: # TODO verify IC50 < 10 nM strictly for this compound: Cc1ccc(F)c(-c2ccc3c(c2)CC(C)(C)C3NC(=O)O[C@@H]2CN3CCC2CC3)c1 (some centres unmarked)
OUT: no (0)

* * *

Give pIC50 for every item shown.
Tested on: GM1 production in Jurkat cells
Assay: cells
Type: cell-based
Conditions: Homo sapiens, Jurkat, 72 h
Formally, pIC50 is defined as -log10 of the concentration c, with c in mol/L.

IN: Quick check: pIC50 on GM1 production in Jurkat cells, item CC1(C)Cc2cc(-c3cccc(F)c3F)ccc2C1NC(=O)O[C@@H]1CN2CCC1CC2 (stereo partly shown) ?
OUT: 7.60

IN: Checklist item: pIC50 tested on GM1 production in Jurkat cells, entry COc1c(Cl)ccc(-c2ccc3c(c2)CC(C)(C)C3NC(=O)O[C@@H]2CN3CCC2CC3)c1Cl (stereo partly shown) , value?
OUT: 7.41

IN: Look up pIC50 with GM1 production in Jurkat cells for this molecule: CCOc1cccc(-c2ccc3c(c2)CC(C)(C)C3NC(=O)O[C@@H]2CN3CCC2CC3)c1 (stereo partly shown)
OUT: 7.77

IN: Return pIC50 measured with GM1 production in Jurkat cells given this molecule: COc1cccc(-c2ccc3c(c2)CC(C)(C)C3NC(=O)O[C@@H]2CN3CCC2CC3)c1 (stereo partly shown)
OUT: 7.71

* * *

System: GM1 production in Jurkat cells
Assay: cells
Assay type: cell-based
Settings: Homo sapiens, Jurkat, 72 h
MEASURED_PROPERTY: pIC50
pIC50 here is simply -log10 of the concentration when that concentration is written in mol/L.

IN: Suppose we examine the molecule Cc1c(Cl)cccc1-c1ccc2c(c1)CC(C)(C)C2NC(=O)O[C@@H]1CN2CCC1CC2 (stereo partly shown) ; what pIC50 value has been reported?
OUT: 7.43

IN: Please give the measured pIC50 for this molecule: CC1(C)Cc2cc(-c3cncc4ccccc34)ccc2C1NC(=O)O[C@@H]1CN2CCC1CC2 (stereo partly shown)
OUT: 7.69

IN: Fill in the blank: the reported pIC50 of Cc1cc(-c2ccc3c(c2)CC(C)(C)C3NC(=O)O[C@@H]2CN3CCC2CC3)ccc1OC(F)(F)F (stereo partly shown) is ____.
OUT: 7.39

IN: Entry CC1(C)Cc2cc(/C=C/c3cccc(F)c3)ccc2C1NC(=O)O[C@@H]1CN2CCC1CC2 (stereo partly shown) : reported pIC50 = ?
OUT: 7.87

IN: Which measured pIC50 value corresponds to CC(C)Cc1cccc(-c2ccc3c(c2)CC(C)(C)C3NC(=O)O[C@@H]2CN3CCC2CC3)c1 (stereo partly shown) ?
OUT: 8.19

IN: Sample COc1cc2c(cc1-c1cccc(F)c1)CC(C)(C)C2NC(=O)O[C@@H]1CN2CCC1CC2 (stereo partly shown) — what was its pIC50?
OUT: 7.35

IN: Item under review: O=C(NC1CCc2ccc(-c3ccc(F)cc3F)cc21)O[C@@H]1CN2CCC1CC2 (stereo partly shown) . Reported pIC50?
OUT: 6.74

IN: State the recorded pIC50 for this entry: COc1ccc(C)cc1-c1ccc2c(c1)CC(C)(C)C2NC(=O)O[C@@H]1CN2CCC1CC2 (stereo partly shown)
OUT: 8.43

IN: // pIC50 lookup, key: CCOc1ccc(Cl)c(-c2ccc3c(c2)CC(C)(C)C3NC(=O)O[C@@H]2CN3CCC2CC3)c1 (stereo partly shown)
OUT: 7.29

IN: # pIC50 lookup, item O=C(NC1CCc2ccc(-c3cc(F)c(F)cc3F)cc21)O[C@@H]1CN2CCC1CC2 (stereo partly shown)
OUT: 7.45

IN: Record request: pIC50 value, item COc1ccc(-c2ccc3c(c2)CC(C)(C)C3NC(=O)O[C@@H]2CN3CCC2CC3)c(Cl)c1Cl (stereo partly shown)
OUT: 7.30

IN: Look up pIC50: CC1(C)Cc2cc(-c3cccc(F)c3Cl)ccc2C1NC(=O)O[C@@H]1CN2CCC1CC2 (stereo partly shown)
OUT: 7.53

IN: Return reported pIC50; argument: COc1cc(F)ccc1-c1ccc2c(c1)CC(C)(C)C2NC(=O)O[C@@H]1CN2CCC1CC2 (stereo partly shown)
OUT: 7.39

IN: Suppose we examine the molecule CC(C)Oc1cc(-c2ccc3c(c2)CC(C)(C)C3NC(=O)O[C@@H]2CN3CCC2CC3)ccn1 (stereo partly shown) ; what pIC50 value has been reported?
OUT: 7.84

IN: Look at this molecule and give its reported pIC50. COc1cc(F)c(-c2ccc3c(c2)CC(C)(C)C3NC(=O)O[C@@H]2CN3CCC2CC3)cc1F (stereo partly shown)
OUT: 7.77

IN: Fill in: pIC50 of CCCOc1cc(F)ccc1-c1ccc2c(c1)CC(C)(C)C2NC(=O)O[C@@H]1CN2CCC1CC2 (stereo partly shown) is ___
OUT: 7.31

IN: Need pIC50, item CC1(C)Cc2cc(-c3ccc(OC(F)F)cc3)ccc2C1NC(=O)O[C@@H]1CN2CCC1CC2 (stereo partly shown)
OUT: 7.86

IN: What value of measured pIC50 is listed for CC1(C)Cc2cc(-c3ccc4nccnc4c3)ccc2C1NC(=O)O[C@@H]1CN2CCC1CC2 (stereo partly shown) ?
OUT: 6.91

IN: Tell me the measured pIC50 of CC1(C)Cc2cc(-c3ccc4c(c3)OC(F)(F)O4)ccc2C1NC(=O)O[C@@H]1CN2CCC1CC2 (stereo partly shown) , please.
OUT: 7.49

IN: Look up pIC50 for this molecule: CCC1(CC)Cc2cc(-c3ccc(OC)cc3F)ccc2C1NC(=O)O[C@@H]1CN2CCC1CC2 (stereo partly shown)
OUT: 7.79

IN: Would you mind telling me what pIC50 value was observed for CC(C)Oc1ccc(-c2cc3c(cc2F)C(NC(=O)O[C@@H]2CN4CCC2CC4)C(C)(C)C3)cc1Cl (stereo partly shown) ?
OUT: 7.48

IN: What value of pIC50 has been reported for the following molecule? CCC1(CC)Cc2cc(-c3cc(OC)cc(OC)c3)ccc2C1NC(=O)O[C@@H]1CN2CCC1CC2 (stereo partly shown)
OUT: 7.60

IN: I have this molecule here, CN(C)CCOc1cccc(-c2ccc3c(c2)CC(C)(C)C3NC(=O)O[C@@H]2CN3CCC2CC3)c1 (stereo partly shown) , and I need its recorded pIC50.
OUT: 7.13

IN: Which pIC50 reading was recorded for the molecule CC1(C)CC(NC(=O)O[C@@H]2CN3CCC2CC3)c2ccc(-c3cccc(OC(F)(F)F)c3)cc21 (stereo partly shown) ?
OUT: 7.71

IN: Tell me the measured pIC50 of CCOc1ccc(-c2ccc3c(c2)CC(C)(C)C3NC(=O)O[C@@H]2CN3CCC2CC3)cc1Cl (stereo partly shown) , please.
OUT: 7.24

IN: Given COc1cc(-c2ccc3c(c2)CC(C)(C)C3NC(=O)O[C@@H]2CN3CCC2CC3)ccc1C (stereo partly shown) , state its recorded pIC50.
OUT: 7.34

IN: Returns the measured pIC50 for the input molecule. Input: CCC1(CC)Cc2cc(-c3ccc4c(c3)OC(F)(F)O4)ccc2C1NC(=O)O[C@@H]1CN2CCC1CC2 (stereo partly shown)
OUT: 7.95

IN: Which pIC50 value is on record for Cc1ccc(-c2ccc3c(c2)CC(C)(C)C3NC(=O)O[C@@H]2CN3CCC2CC3)c(F)c1 (stereo partly shown) ?
OUT: 7.63

IN: Consider the molecule shown here: Cc1cscc1-c1ccc2c(c1)CC(C)(C)C2NC(=O)O[C@@H]1CN2CCC1CC2 (stereo partly shown) What is its recorded pIC50?
OUT: 8.04

IN: Quick one: pIC50 of O=C(NC1CCc2cc(-c3ccccc3OC(F)(F)F)ccc21)O[C@@H]1CN2CCC1CC2 (stereo partly shown) ?
OUT: 7.14

IN: Recorded pIC50 for CCC1(CC)Cc2cc(-c3cc(OC)ccc3OC)ccc2C1NC(=O)O[C@@H]1CN2CCC1CC2 (stereo partly shown) , please?
OUT: 8.52
